- system: Inhibitor of nuclear factor kappa-B kinase subunit epsilon (Homo sapiens) (UniProt Q14164);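 note: reported values are averaged percent inhibition figures against human IKKε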
- Sequence (Q14164 whole entry): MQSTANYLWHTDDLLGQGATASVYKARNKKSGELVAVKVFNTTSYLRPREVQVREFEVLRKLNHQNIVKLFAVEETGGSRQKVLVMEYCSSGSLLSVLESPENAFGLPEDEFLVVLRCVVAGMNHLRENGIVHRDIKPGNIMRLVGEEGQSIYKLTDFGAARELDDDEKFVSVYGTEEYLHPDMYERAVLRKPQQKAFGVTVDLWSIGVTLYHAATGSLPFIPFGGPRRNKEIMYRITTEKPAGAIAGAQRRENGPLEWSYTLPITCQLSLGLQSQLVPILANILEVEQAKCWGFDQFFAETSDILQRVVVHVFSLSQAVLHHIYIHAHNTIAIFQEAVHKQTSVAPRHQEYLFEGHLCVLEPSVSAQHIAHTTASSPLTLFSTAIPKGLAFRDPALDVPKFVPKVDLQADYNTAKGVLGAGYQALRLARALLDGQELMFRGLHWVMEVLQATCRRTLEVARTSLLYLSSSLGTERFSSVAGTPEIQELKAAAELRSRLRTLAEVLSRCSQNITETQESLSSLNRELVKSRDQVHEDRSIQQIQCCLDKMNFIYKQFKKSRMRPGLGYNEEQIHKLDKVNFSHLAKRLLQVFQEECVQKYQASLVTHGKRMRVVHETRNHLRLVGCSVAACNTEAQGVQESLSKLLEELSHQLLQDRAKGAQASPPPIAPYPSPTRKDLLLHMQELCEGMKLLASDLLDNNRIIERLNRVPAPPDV
- reportedConditions: at 1 µM
assayMetric: inhibition
Could you write the number and then its unit?

CN(c1ccc(NC(=O)NCCN2CCOCC2)cc1)c1ccnc(Nc2ccc(CS(C)(=O)=O)cc2)n1 | 95.2%
O=C(O[C@H]1CN[C@H](C#Cc2cc3ncnc(Nc4ccc5c(ccn5Cc5cc(F)ccc5F)c4)c3s2)C1)N1CCOCC1 | 3.8%
CCS(=O)(=O)c1ccc(OC)c(Nc2ncc(-c3cccc(F)c3)o2)c1 | 8.87%
O=C(Nc1n[nH]c2nnc(-c3cccnc3)cc12)C1CC1 | 0.84%
CCOc1ccc2c(-c3ccnc(Nc4cc(OC)cc(C(F)(F)F)c4)n3)cnn2n1 | 26.5%

Q: For the molecule CN1CCC(n2cnc(-c3ccc(F)cc3)c2-c2ccnc(NCCO)n2)CC1 , give its reported inhibition.
Result: 9.51%

Q: Please indicate inhibition recorded for COc1cc(N2CCN(C(C)C)CC2)ccc1Nc1nc(Nc2cccc(F)c2C(=O)O)c2cc[nH]c2n1
Result: 7.25%

Q: State its inhibition: CS(=O)(=O)Nc1ccc(-c2ccc3c(NC(=O)C4CC4)n[nH]c3c2)cc1
Result: 2.67%

Q: Supply recorded inhibition for O=C(O[C@H]1CN[C@H](C#Cc2cc3ncnc(Nc4ccc(OCc5cccc(F)c5)c(Cl)c4)c3s2)C1)N1CCOCC1 here.
Result: 9.71%

Q: Give inhibition for the following molecule: N#Cc1cccc(Nc2ncc(-c3ccccc3)o2)c1
Result: 6.35%
